Overview of recorded pEC50 for various binders
target: T1, TFECDHis (extracellular domain of tissue factor, amino acid 1-251, with C-terminal His tag) (human, UniProt P13726 33-251); assay: ELISA, coated TFECDHis, mean of 3
T1 construct: range 1-251; The stated range 1-251 starts at residue 1 of NP-001984; also called extracellular domain of TF
Would you please state pEC50, meaning minus log10 of the concentration in mol/L, as a bare number?

What pEC50 value was documented for this binder, anti-TF HuMab 025 (antibody, V domains shown, Human monoclonal antibody from HuMab mice) VH: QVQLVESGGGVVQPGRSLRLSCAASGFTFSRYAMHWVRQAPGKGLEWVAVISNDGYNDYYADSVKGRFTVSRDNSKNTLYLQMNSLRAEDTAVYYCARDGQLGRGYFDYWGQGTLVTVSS VL: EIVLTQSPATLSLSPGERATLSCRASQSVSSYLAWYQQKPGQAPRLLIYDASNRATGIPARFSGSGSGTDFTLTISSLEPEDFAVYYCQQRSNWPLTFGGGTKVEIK ?
9.47

What pEC50 value was documented for this binder, anti-TF HuMab 109 (antibody, V domains shown, Human monoclonal antibody from HuMab mice) VH: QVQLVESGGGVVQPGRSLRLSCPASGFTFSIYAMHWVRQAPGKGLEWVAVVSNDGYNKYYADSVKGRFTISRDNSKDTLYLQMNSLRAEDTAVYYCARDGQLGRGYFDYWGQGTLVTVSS VL: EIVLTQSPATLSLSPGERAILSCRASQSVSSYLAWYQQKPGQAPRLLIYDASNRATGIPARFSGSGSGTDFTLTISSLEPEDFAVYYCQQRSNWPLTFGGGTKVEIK ?
9.57
